Biological target: furin, P09958;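 further: purified furin at 1:10 enzyme:substrate in 50 mM HEPES pH 7.5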
Sequence (P09958 whole entry): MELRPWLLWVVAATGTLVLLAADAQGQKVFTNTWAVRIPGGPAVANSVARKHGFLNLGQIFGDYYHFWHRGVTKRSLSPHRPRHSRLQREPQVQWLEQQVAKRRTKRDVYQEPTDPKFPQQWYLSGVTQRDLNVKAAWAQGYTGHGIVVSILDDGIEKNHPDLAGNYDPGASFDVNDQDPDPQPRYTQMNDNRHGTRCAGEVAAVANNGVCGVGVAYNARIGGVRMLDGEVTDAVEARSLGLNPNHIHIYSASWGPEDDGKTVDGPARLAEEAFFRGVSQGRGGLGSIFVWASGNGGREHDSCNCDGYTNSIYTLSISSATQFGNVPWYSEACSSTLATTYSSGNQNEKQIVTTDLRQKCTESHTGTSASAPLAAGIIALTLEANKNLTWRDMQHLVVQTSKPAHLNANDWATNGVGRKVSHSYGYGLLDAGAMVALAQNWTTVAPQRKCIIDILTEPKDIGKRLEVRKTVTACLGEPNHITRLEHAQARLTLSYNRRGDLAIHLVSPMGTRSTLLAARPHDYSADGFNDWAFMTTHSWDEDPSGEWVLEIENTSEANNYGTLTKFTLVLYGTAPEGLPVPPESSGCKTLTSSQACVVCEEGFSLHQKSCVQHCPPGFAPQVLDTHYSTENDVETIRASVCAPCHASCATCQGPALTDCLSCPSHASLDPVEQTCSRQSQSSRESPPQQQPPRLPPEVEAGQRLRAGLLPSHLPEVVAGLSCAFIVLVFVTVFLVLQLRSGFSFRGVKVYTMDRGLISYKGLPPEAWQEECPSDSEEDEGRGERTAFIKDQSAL
Assay: furin cleavage Z-score vs untreated control; higher = more cleavage, active = 3.5 or more, inactive = 1 or less, 8 variable residues between constant flanks
Conditions: 30 min
The list shows a part of the results. The hit rate among all sequences tested is not known here.
Tag: 1 if measured furin cleavage Z-score is not below 0.4, 0 if it is.

>  <Construct sequence>
CAPVFRQKRSAGNASASA [FS-620]

>  <Classification>
1

$$$$
>  <Construct sequence>
CATWMNSTGFAGNASASA [HC437]

>  <Classification>
0

$$$$
>  <Construct sequence>
CAGPKDQKRSAGNASASA [FS-1002]

>  <Classification>
0

$$$$
>  <Construct sequence>
CARCRRQFQEAGNASASA [FS-1887]

>  <Classification>
1

$$$$
>  <Construct sequence>
CAPVPRQKRSAGNASASA [FS-1387]

>  <Classification>
1

$$$$
>  <Construct sequence>
CAMEECSQHAAGNASASA [HC1763]

>  <Classification>
1

$$$$
